Molecular target: T1, 4H697-AA
T1 chain: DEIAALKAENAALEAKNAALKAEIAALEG
Assay: two-hybrid library CCmax;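 note: natural log of median RNA to DNA barcode read ratio; higher means stronger binding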
Settings: mean of both orientations
Rule: Satisfied for interaction score not less than -1, Not satisfied for anything less.

INSERT INTO measurements (binder, discrete_label) VALUES
  ('DEIAALEAEIAALEAENAALKAKNAALKG [4H32-AA]', 'Not satisfied');

Q: Form field: interaction score at least -1? Entry: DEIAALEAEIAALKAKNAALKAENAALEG [4H123-AA]
Ans: Satisfied

Q: Dear colleague, could you confirm whether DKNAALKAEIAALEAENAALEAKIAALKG [4H3606-AA] has interaction score at or above -1?
Ans: Satisfied

Q: Hi, just wondering whether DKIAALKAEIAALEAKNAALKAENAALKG [4H2620-AA] shows interaction score of -1 or higher.
Ans: Not satisfied

Q: Does DKNAALKAENAALEAEIAALEAKIAALKG [4H3718-AA] have a reported interaction score of at least -1?
Ans: Satisfied

Q: Is interaction score at least -1? Consider DKNAALEAKIAALKAENAALEAKIAALEG [4H3413-AA]
Ans: Satisfied

Q: API: above_or_equal(metric=interaction score, cutoff=-1) for item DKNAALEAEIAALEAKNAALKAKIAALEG [4H3133-AA]
Ans: Not satisfied

Q: Given DKIAALKAKIAALKAENAALKAENAALEG [4H2907-AA] , state whether its interaction score is at least -1.
Ans: Not satisfied

Q: Could you verify whether the entry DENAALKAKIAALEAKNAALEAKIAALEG [4H1845-AA] shows interaction score of no less than -1?
Ans: Not satisfied
